- SYSTEM UNDER TEST: adenosine A2A receptor (Homo sapiens (Human), UniProt P29274)
- Sequence (P29274 whole entry): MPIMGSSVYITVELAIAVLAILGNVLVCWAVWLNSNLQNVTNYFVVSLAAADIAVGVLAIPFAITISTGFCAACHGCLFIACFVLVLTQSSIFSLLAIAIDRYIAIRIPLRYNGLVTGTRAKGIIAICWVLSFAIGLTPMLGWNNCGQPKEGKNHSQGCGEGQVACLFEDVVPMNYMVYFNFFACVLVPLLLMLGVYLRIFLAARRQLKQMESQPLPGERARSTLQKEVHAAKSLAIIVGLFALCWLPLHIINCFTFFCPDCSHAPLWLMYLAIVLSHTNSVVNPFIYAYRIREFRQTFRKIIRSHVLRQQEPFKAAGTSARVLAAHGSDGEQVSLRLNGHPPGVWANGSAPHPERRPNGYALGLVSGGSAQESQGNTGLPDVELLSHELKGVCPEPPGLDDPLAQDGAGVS
- METHOD: Adenosine receptor activity assay (Table 1), A2A activity
- Format: biochemical
- MEASUREMENT PARAMETERS: read-out: Ave A2A cAMP IC50
pIC50: −log10 of the molar value.
PROPERTY LABEL: pIC50

Known pIC50 results, listed for orientation:
{"columns": ["COMPOUND", "pIC50"],
 "data": [
  ["C[C@H](Nc1nc(C(=O)N2CCC(C(=O)OC(C)(C)C)C2)c2sccc2n1)c1ccccn1 (stereo partly drawn) [Example Z355]", "< 6.30"],
  ["C[C@H](Nc1nc(C(=O)N2CCC2)c2sccc2n1)c1cccc(F)c1 [Example Z128]", "7.00 to 7.30"],
  ["O=C(c1nc(NCc2ccc(C(F)(F)F)nc2)nc2ccsc12)N1CCCC1 [Example Z76]", "6.30 to 7.00"],
  ["COc1ccc(CNC(=O)c2nc(NC(C)c3ccccn3)nc3ccsc23)cn1 (stereo not drawn) [Example Z49]", "6.30 to 7.00"],
  ["CNc1cc2nc(N[C@@H](C)c3cncc(F)c3)nc(C(=O)N3CC(OC)C3)c2s1 [Example Z243]", "6.30 to 7.00"]
]}

// sample CC(C)C(=O)NCC1CN(C(=O)c2nc(N[C@@H](C)c3cncc(F)c3)nc3ccsc23)C1 [Example Z578] , its pIC50 was 7.00 to 7.30

// sample COC1CN(C(=O)c2nc(N[C@@H](C)c3cncc(F)c3)nc3cc(C)sc23)C1 [Example Z268] , its pIC50 was 7.00 to 7.30

// sample Cc1cc2nc(N[C@@H](C)c3cncc(F)c3)nc(C(=O)N3CC[C@H](CN)C3)c2s1 [Example Z554] , its pIC50 was < 6.30

// sample CC(C)C(=O)NC1CN(C(=O)c2nc(N[C@@H](C)c3cncc(F)c3)nc3ccsc23)C1 [Example Z558] , its pIC50 was 7.30 to 8.00

---

- SYSTEM UNDER TEST: adenosine A2B receptor (Homo sapiens (Human), UniProt P29275)
- Sequence (P29275 whole entry): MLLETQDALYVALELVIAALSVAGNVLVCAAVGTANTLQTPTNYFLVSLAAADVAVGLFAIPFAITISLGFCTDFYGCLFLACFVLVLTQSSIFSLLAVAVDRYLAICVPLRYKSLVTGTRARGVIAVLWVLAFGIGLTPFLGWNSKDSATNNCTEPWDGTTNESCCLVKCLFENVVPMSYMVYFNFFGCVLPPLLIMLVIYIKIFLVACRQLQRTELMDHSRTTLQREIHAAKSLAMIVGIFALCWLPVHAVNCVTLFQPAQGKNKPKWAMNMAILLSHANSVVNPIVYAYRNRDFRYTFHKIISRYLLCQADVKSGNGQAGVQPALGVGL
- METHOD: Adenosine receptor activity assay (Table 1), A2B activity
- Format: biochemical
- MEASUREMENT PARAMETERS: read-out: Ave A2B cAMP IC50
The following molecules are listed with their measured IC50 values.

Known IC50 results, listed for orientation:
{"columns": ["MOLECULE", "VAL"],
 "data": [
  ["C[C@H](Nc1nc(C(=O)N2CCC[C@@H]2C)c2sccc2n1)c1cccnc1", "100 to 500 nM"],
  ["CCNC(=O)c1nc(NCCc2ccc(O)cc2)nc2ccsc12", "100 to 500 nM"],
  ["C[C@H](Nc1nc(C(=O)N2CCN(C(=O)C(C)(C)C)C2)c2sccc2n1)c1cncc(F)c1", "> 500 nM"]
]}

// sample `C[C@H](Nc1nc(C(=O)N2CC(CNC(=O)N(C)C)C2)c2sccc2n1)c1cncc(F)c1` , its IC50 was 10 to 50 nM

// sample `Cc1cc2nc(N[C@@H](C)c3ccccn3)nc(C(=O)NCc3cccnc3)c2s1` , its IC50 was 10 to 50 nM

// sample `CC(=O)N[C@H]1CCN(C(=O)c2nc(NCc3cncc(F)c3)nc3ccsc23)C1` , its IC50 was < 10 nM

// sample `C[C@H](Nc1nc(C(=O)NCC(F)(F)F)c2sccc2n1)c1ccccn1` , its IC50 was < 10 nM

// sample `CO[C@H]1CCN(C(=O)c2nc(N[C@@H](C)c3cncc(F)c3)nc3ccsc23)C1` , its IC50 was 10 to 50 nM

// sample `CO[C@H]1CCN(C(=O)c2nc(N[C@@H](C)c3ccccn3)nc3c(C)csc23)C1` , its IC50 was 100 to 500 nM

// sample `C[C@H](Nc1nc(C(=O)NC[C@@H](C)O)c2sccc2n1)c1cncc(Cl)c1` , its IC50 was < 10 nM

// sample `Cc1cc2nc(N[C@@H](C)c3cncc(F)c3)nc(C(=O)N3CC(CN)C3)c2s1` , its IC50 was 10 to 50 nM

// sample `C[C@H](Nc1nc(C(=O)NCc2nccn2C)c2sccc2n1)c1ccccn1` , its IC50 was > 500 nM

Source: patent US11254686B1
